Test system: BT-549 breast
Assay: NCI tumour cell line growth inhibition, 48 h

# molecule, target.of.assay, TGI
data = [
    ("CCOC(=O)Oc1c(OC)cc(C(=O)c2ccc(OC)c(O)c2OC)cc1OC", "BT-549 breast", "6.97 µM"),
    ("COC(=O)[C@H]1C=NN[C@@H]1C(=O)N1[C@H]2CC3CC[C@@]2(CS1(=O)=O)C3(C)C", "BT-549 breast", "> 100 µM"),
    ("S=C1c2ccc(Cl)cc2-n2cnnc2C2CSCN12 (stereo not given)", "BT-549 breast", "> 100 µM"),
    ("COc1ccc(C2=Nn3c(nnc3-c3cc(Cl)cc(Cl)c3Cl)SC2)cc1", "BT-549 breast", "> 21.9 µM"),
    ("O=[N+]([O-])c1ccccc1N=Nc1c(O)[nH]c2cccc(C(F)(F)F)c12", "BT-549 breast", "> 100 µM"),
    ("O=S(=O)(/N=c1\\scc(-c2ccccc2)n1-c1ccccc1)c1ccc(N2N=C3c4ccccc4CC3C2c2ccc(Cl)cc2)cc1 (stereo not given)", "BT-549 breast", "> 100 µM"),
    ("O=C(O)CN(CC(=O)O)C1CCCCC1N1CC(=O)OC(=O)C1 (stereo not given)", "BT-549 breast", "> 100 µM"),
    ("CC1CC[C@@]2(OC1)OC1C[C@H]3[C@@H]4CC=C5CC(OC6OC(CO)C(OC7OC(CO)C(O)C(OC8OCC(O)C(O)C8O)C7OC7OC(CO)C(OC8OC(C)C(OC9OC(C)C(O)C(O)C9O)C(O)C8O)C(O)C7O)C(O)C6O)CCC5(C)[C@H]4CCC3(C)C1[C@@H]2C (stereo not given in full)", "BT-549 breast", "16.4 µM"),
    ("CC(=O)c1c(O)c(C)c(O)c(Cc2c(O)c3c(c(C(=O)/C=C/c4ccccc4)c2O)OC(C)(C)C=C3)c1O", "BT-549 breast", "8.77 µM"),
    ("Nc1ncn([C@@H]2S[C@H](CO)[C@@H](O)[C@@H]2F)c(=O)n1", "BT-549 breast", "> 100 µM"),
]
